The values you see were collected from the RNAGym collection of RNA variant scans (doi:10.7554/elife.80360).

B1: HDV Ribozyme (parent)
chain: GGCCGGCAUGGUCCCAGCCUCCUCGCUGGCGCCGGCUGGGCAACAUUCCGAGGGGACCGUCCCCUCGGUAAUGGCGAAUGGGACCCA

Variants of: B1
Assay: self-cleavage, relative activity (ratio to wild type); higher = more cleavage; co-transcriptional
The following variants are listed with their measured self-cleavage values.

A selection of reference data follows.
INSERT INTO results (variantidentifier, parameter, testvalue) VALUES
  ('G6U G35U', 'self-cleavage', 0.143),
  ('C49G C57A', 'self-cleavage', 1.19),
  ('G40C C86G', 'self-cleavage', 0.222),
  ('G40U A45U', 'self-cleavage', 0.361);

Item: C18A G81U | self-cleavage: 0.0817

Recorded result, G53C C58A , self-cleavage: 1.06
